// MEAN CpLDH INHIBITION (%) collected for recombinant CpLDH protein (Cryptosporidium parvum, UniProt Q9GT92, F198L/K295E/R251K)
recorded.metric: MEAN CpLDH INHIBITION (%)

molecule="Cc1cc(N(CC(C)Br)CC(C)Br)ccc1N=Nc1ccccc1C(=O)O (centres unmarked)" readout_units=% measured_number=-69.26
molecule=CCN(CC)C(=S)[S-].[Na+] readout_units=% measured_number=-37.64
molecule="Cc1ccccc1NC(=O)C(=O)C(C#N)c1ccccc1C (centres unmarked)" readout_units=% measured_number=-58.66
molecule=OC[C@H]1O[C@@H](n2cnc3cncnc32)[C@H](O)[C@@H]1O readout_units=% measured_number=-32.77
molecule="CN1CCN(CN2C(=O)C3C4C=CC(C3C2=O)C2C3C(=O)N(CN5CCN(C)CC5)C(=O)C3C42)CC1 (centres unmarked)" readout_units=% measured_number=-202.91

* * *

experiment: Compound cytotoxicity assay (WST-1 cell proliferation reagent); conditions: human
Readings of IC50 at 24 h for the listed compounds
recorded.metric: IC50 at 24 h (µM)

line_notation=Cc1cc2c(C(C)C)c(O)c(O)c(C=O)c2c(O)c1-c1c(C)cc2c(C(C)C)c(O)c(O)c(C=O)c2c1O readout_units=µM measured_number=64.2
line_notation=CN(C)C(=S)SSC(=S)N(C)C readout_units=µM measured_number=110

* * *

// MEAN CpLDH INHIBITION (%) collected for recombinant CpLDH protein (Cryptosporidium parvum, UniProt Q9GT92, F198L/K295E/R251K)
recorded.metric: MEAN CpLDH INHIBITION (%)

molecule=CCOC(=O)Cc1c(C)c2cc(C(=O)c3ccccc3)c(O)cc2oc1=O measured_number=0.63
molecule=O=C1C=C(NCCc2ccccc2)c2ccccc2C1=O measured_number=-17.56
molecule="CCN(CC)CCOc1ccc(C(O)(Cc2ccc(OC)cc2)c2ccccc2)cc1 (stereo not drawn)" measured_number=-57.96
molecule=CC[C@@]1(O)C[C@H](O)c2c(O)c3c(c(O)c2[C@H]1C(=O)OC)C(=O)c1cccc(O)c1C3=O measured_number=-30.88
molecule=O=C1OC(c2ccccc2)=N/C1=C\c1ccc(N(CCCl)CCCl)cc1 measured_number=-18.47
molecule=Cc1c(C(=O)C/C(=N\O)C(=O)Nc2cc(Cl)c(Cl)cc2Cl)[n+](=O)c2ccccc2n1[O-] measured_number=-233.40
molecule=C[CH2][Ge]1([CH2]C)[CH2]CC2(CCN(CCCN(C)C)C2)C[CH2]1 measured_number=-81.94
molecule=N#CCCN(CCC#N)c1ccc(C=Nc2ccc(F)cc2)cc1 measured_number=-46.45
molecule=COc1ccc(C(=O)/C(Br)=C\C(=O)[O-])cc1.[Na+] measured_number=-32.70

* * *

molecular target: recombinant CpLDH protein (Cryptosporidium parvum, UniProt Q9GT92, F198L/K295E/R251K)
Label no if MEAN CpLDH INHIBITION (%) falls below -60%; label yes in every other case.

molecule="C[N+](C)(C)CC1CCCC1=O.[I-] (centres unmarked)" group=yes
molecule="CC1(C)C(O)OC(O)C1(C)C (centres unmarked)" group=yes
molecule="Cc1ccc(C)c(NC(=O)C(=O)C(C(=O)c2ccc3ccccc3c2)C2OC(=O)c3ccccc32)c1 (centres unmarked)" group=no
molecule=Cc1cc(O)c(C(C)C)cc1C1(c2cc(C(C)C)c(O)cc2C)OC(=O)c2ccccc21 group=no
molecule=Cc1ccc(NC(=S)C#N)c(C)c1 group=yes
molecule=CCN(CC)CCOc1ccccc1/C=C/c1noc2ccccc12.Cl group=yes
molecule=O=S(=O)([O-])c1cc(N=Nc2cc(S(=O)(=O)[O-])c3ccccc3c2O)ccc1/C=C/c1ccc(N=Nc2cc(S(=O)(=O)[O-])c3ccccc3c2O)cc1S(=O)(=O)[O-].[Na+].[Na+].[Na+].[Na+] group=yes

* * *

system: HCT-8 cells; assay: Compound cytotoxicity assay (WST-1 cell proliferation reagent); conditions: read-out: CYTOTOXICITY IC50; HCT-8 cells, 24 h
pIC50: −log10 of the molar value.
recorded.metric: pIC50

line_notation=Cc1cc(N(CCCl)CCCl)ccc1/C=N/NC(=O)Cc1cc(=O)oc2cc(O)ccc12 recorded_metric=pIC50 measured_number=3.84
line_notation=O=C1c2ccccc2C(=O)c2c(O)c(O)cc(O)c21 recorded_metric=pIC50 measured_number=3.54

* * *

Readings of MEAN CpLDH INHIBITION (%) for the listed compounds
target: recombinant CpLDH protein (Cryptosporidium parvum, UniProt Q9GT92, F198L/K295E/R251K)
recorded.metric: MEAN CpLDH INHIBITION (%)

compound=Cn1cnc([N+](=O)[O-])c1Sc1nnc(-c2cccnc2)n1C test_target="recombinant CpLDH protein (Cryptosporidium parvum, UniProt Q9GT92, F198L/K295E/R251K)" readout_units=% measured_number=-15.11
compound=CC1=C/C(=C2/N=C(N(C)C)SS2)C(C)=N1.[O-][Cl+3]([O-])([O-])O test_target="recombinant CpLDH protein (Cryptosporidium parvum, UniProt Q9GT92, F198L/K295E/R251K)" readout_units=% measured_number=-0.50
compound=COc1cc2c(c(O)c1OC)-c1c(cc(OC)c(OC)c1OC)C[C@@H](C)[C@@H](C)C2 test_target="recombinant CpLDH protein (Cryptosporidium parvum, UniProt Q9GT92, F198L/K295E/R251K)" readout_units=% measured_number=-43.86
compound=C=C(C)[C@@H]1CCc2c(O)c(O)c(=O)cc(C)c2C1 test_target="recombinant CpLDH protein (Cryptosporidium parvum, UniProt Q9GT92, F198L/K295E/R251K)" readout_units=% measured_number=-54.97
compound="CC(O)CCC(=O)c1ccoc1 (stereo not drawn)" test_target="recombinant CpLDH protein (Cryptosporidium parvum, UniProt Q9GT92, F198L/K295E/R251K)" readout_units=% measured_number=13.12
compound=C=C1C(=O)O[C@@H]2C[C@@H](C)[C@@H]3C=CC(=O)[C@@]3(C)[C@@H](O)[C@H]12 test_target="recombinant CpLDH protein (Cryptosporidium parvum, UniProt Q9GT92, F198L/K295E/R251K)" readout_units=% measured_number=-30.32
compound="N#CC1(C#N)C2C=CC(c3coc4cccc2c34)C1(C#N)C#N (stereo not drawn)" test_target="recombinant CpLDH protein (Cryptosporidium parvum, UniProt Q9GT92, F198L/K295E/R251K)" readout_units=% measured_number=-23.71
compound="Nc1nc(SCc2ccccc2Cl)c2ncn(C3OC(CO)C(O)C3O)c2n1 (stereo not drawn)" test_target="recombinant CpLDH protein (Cryptosporidium parvum, UniProt Q9GT92, F198L/K295E/R251K)" readout_units=% measured_number=-57.18
compound="CCCCCCCCCCCCC(O)C(=O)O (stereo not drawn)" test_target="recombinant CpLDH protein (Cryptosporidium parvum, UniProt Q9GT92, F198L/K295E/R251K)" readout_units=% measured_number=-83.85
compound=CC1(C)CC2=NO[Se]3=C2C(=NO3)C1 test_target="recombinant CpLDH protein (Cryptosporidium parvum, UniProt Q9GT92, F198L/K295E/R251K)" readout_units=% measured_number=-53.59
compound=Nc1nc2n[nH]nc2c(=O)[nH]1 test_target="recombinant CpLDH protein (Cryptosporidium parvum, UniProt Q9GT92, F198L/K295E/R251K)" readout_units=% measured_number=-18.77
compound=c1ccc2c(c1)nnn1c3cnccc3nc21 test_target="recombinant CpLDH protein (Cryptosporidium parvum, UniProt Q9GT92, F198L/K295E/R251K)" readout_units=% measured_number=-52.88
compound=CN(Cc1cnc2nc(N)nc(N)c2n1)c1ccc(C(=O)N[C@@H](CCC(=O)O)C(=O)O)c2ccccc12 test_target="recombinant CpLDH protein (Cryptosporidium parvum, UniProt Q9GT92, F198L/K295E/R251K)" readout_units=% measured_number=-134.26
compound=CCN(CC)CC.CCOc1ccc(NC(=O)N=C=[N-])cc1.[CH-]1CCCCC1.[CH-]1CCCCC1.[CH-]1CCCCC1.[Cl-].[Sn+4] test_target="recombinant CpLDH protein (Cryptosporidium parvum, UniProt Q9GT92, F198L/K295E/R251K)" readout_units=% measured_number=-42.92
compound=C[C@]12Cc3cnc(-c4ccccc4)nc3C[C@@H]1CC[C@@H]1[C@@H]2CC[C@@]2(C)[C@H]1CC[C@]2(C)O test_target="recombinant CpLDH protein (Cryptosporidium parvum, UniProt Q9GT92, F198L/K295E/R251K)" readout_units=% measured_number=-20.27
compound=NC(=S)N/N=C/c1ccc(OC(=O)COc2ccccc2Cl)cn1 test_target="recombinant CpLDH protein (Cryptosporidium parvum, UniProt Q9GT92, F198L/K295E/R251K)" readout_units=% measured_number=-5.23
compound=O=C(NCCCCCCCCNC(=O)c1cccc2ccccc12)c1cccc2ccccc12 test_target="recombinant CpLDH protein (Cryptosporidium parvum, UniProt Q9GT92, F198L/K295E/R251K)" readout_units=% measured_number=-0.22
compound=COc1ccc(N=C2C(=Nc3ccc(OC)cc3)N(c3ccc(N(C)C)cc3)C(=S)N2c2ccc(OC)cc2)cc1 test_target="recombinant CpLDH protein (Cryptosporidium parvum, UniProt Q9GT92, F198L/K295E/R251K)" readout_units=% measured_number=-158.34
